Assay: antimalarial activity against Dd2 strain (AID 2302);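 also: 0% = DMSO untreated growth and 100% = chloroquine plus artemisinin killed control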
Conditions: P. falciparum Dd2 in RBCs, LDH growth readout, 72 h; at 2 µM; hits give high values
Measured growth inhibition values are reported for all entries that follow.

# compound, growth inhibition [%]
data = [
    ("CC(C)CNCc1ccc(-c2ccc(CNC3CCN(Cc4ccccc4)CC3)cc2)cc1", 96),
    ("COc1cc2c(cc1S(=O)(=O)c1ccc(COc3ccc(C(F)(F)F)cc3)cc1)CNCC2", 89),
    ("CC(C)Cc1ccc(N2CCN(CCCCNC(=O)c3ccc(NC(=O)c4cc(C(F)(F)F)cc(C(F)(F)F)c4)cc3)CC2)cc1", 100),
    ("c1nc2nc3c(c(Nc4ccc5c(c4)CCC5)n2n1)CCC3", 70),
    ("C=CCC(C)n1ncc2c3c(N)nc(N)nc3ccc21 (stereo not given)", 95),
    ("Cc1ccc(NC(=O)Nc2cccc(Cl)c2)cc1-c1ccc(C(=O)Nc2ccncc2)cc1", 49),
    ("CC(C)(CNC(=O)[C@@H]1CCCN(CCOc2ccc(Cl)cc2)C1)c1nc(-c2ccc(Cl)c(O)c2)c(-c2ccncc2)[nH]1", 57),
    ("COc1ccc(Cn2c(=O)[nH]c3cc(C(=O)NC4CCN(Cc5ccccc5)CC4)ccc3c2=O)cc1", 45),
    ("CC1CN(c2ccc(NC(=O)c3cccs3)cc2)CCN1Cc1cccc(F)c1 (stereo not given)", 96),
    ("CCOC(=O)NC1=NC(C)(C)N(OCc2cccc3c2ccc2ccccc23)C(NC(=O)OCC)=N1", 3),
    ("CCNc1cc(C(=O)N[C@@H](Cc2ccccc2)[C@H](O)CNC(C)(C)CCCC(C)C)cc(N2CCCC2=O)c1", 81),
    ("O=[N+]([O-])c1cccc(CNCC2CCN(Cc3ccc(Cl)c(Cl)c3)CC2)c1", 41),
    ("O=C(C1CCN(c2nnnn2-c2ccccc2)CC1)N1CCc2ccccc2C1", 97),
    ("COC(=O)Cc1ccc(N)c2ccccc12", -1),
    ("Cc1ccc(Oc2c(-c3ccccc3CN3CCCC3CN(C)C)cnn(C)c2=O)cn1 (stereo not given)", 9),
    ("COc1cc2c(c(Cl)c1OC)CCN(C(=O)C(F)(F)F)CC2c1ccccc1 (stereo not given)", 101),
    ("CCC[C@@H]([C@@H](CC1CCCCC1)C(=O)N[C@@H](CCOC(=O)NCC)C(=O)Nc1nccs1)N(O)C=O", 79),
    ("O=C(/C=C/c1ccc(Cl)c(Cl)c1)NCCCCCCN1CCN(C(=O)Nc2ccc(Cl)c(Cl)c2)CC1", 0),
    ("Cc1nc(C(C)Nc2nncc(-c3ccc(Cl)cc3)n2)cs1 (stereo not given)", 55),
    ("CCOC(=O)c1[nH]c(-c2cccc(F)c2)nc1N", 2),
]

====

Assay: human hepatoma cell viability loss – ATP luminescence, cytotoxicity control for P. falciparum antimalarial project, primary screen (AID 2303);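 also: 0% = DMSO wells and 100% = digitonin-killed cells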
Details: HepG2 viability, 24-48 h, at 10 µM, hits give high values
Labelling field: enter 1 if recorded inhibition is less than 40%. Enter -1 if it equals or exceeds that cut-off.

# mol, label value
measured = [
    ("COc1ccc(-c2ccc(NC(=O)c3cccc(Cl)c3)cc2)cc1CNC(C)C", 1),
    ("Cc1cc(F)ccc1-c1nc(NCCCNCCc2ccccc2)nc2c1ccc(=O)n2-c1c(F)cccc1F", 1),
    ("CCc1c(CCNCCCCCCNCc2ccc3c(c2CC)OCO3)ccc(OC)c1OC", 1),
    ("COc1cc(-c2ccc(-c3cnc(N)nc3OC)[nH]2)cc(OC)c1OC", 1),
    ("Cc1ccc(C(=O)Nc2ccc(-c3nc4ccccc4[nH]3)cc2)cc1S(=O)(=O)N1CCOCC1", -1),
    ("O=C(/C=C/c1ccc(Cl)c(Cl)c1)NCCCCCN1CCC(n2c(=O)[nH]c3ccccc32)CC1", 1),
    ("COc1cccc(NC(=O)Nc2ccc(C)c(-c3ccc(C(=O)Nc4ccncc4)cc3)c2)c1", -1),
    ("COc1ccc2nc3cc(Cl)ccc3c(NCCCCNc3c4ccc(Cl)cc4nc4ccc(OC)cc34)c2c1", 1),
    ("CC(C)NCc1ccc(-c2cccc(-c3nc4ccccc4[nH]3)c2)cc1", 1),
]
